Hello, the source for this data is patent US20110086759A1, in case you need it.

# Test system: Alopecurus myosuroides (ALOMY)
# assayProtocol: Post-emergence biological efficacy, glasshouse pot test
# Assay type: in vivo
# experimentalConditions: 312 h, post-emergence, 1,000 g/ha, evaluated after 13 days (100=total damage; 0=no damage), read-out: Percentage damage caused to weed species, ALOMY
reportedMetric: pest or weed control at 1000 g/ha (%)
Give bare numbers, in %.

COC(=O)c1nc(C2CC2)nc(NCc2cc(F)cc(F)c2)c1Cl [Compound 4-100]	30
CCC(Nc1nc(C2CC2)nc(C(=O)OC)c1Cl)c1ccccc1 (stereo not drawn) [Compound 4-194]	10
COC(=O)c1nc(C2CC2)nc(N[C@@H](CO)Cc2ccccc2)c1Cl [4-273 (R)]	30
COC(=O)c1nc(C2CC2)nc(NCc2cccc(C(F)(F)F)c2)c1Cl [Compound 4-76]	40
COC(=O)c1nc(C2CC2)nc(NC2(/C=C/c3ccc(F)cc3)CC2)c1Cl [Compound 4-20]	20
COC(=O)c1nc(C2CC2)nc(NCC(F)c2ccc(Br)cc2)c1Cl (stereo not drawn) [Compound 4-236]	0

List pest or weed control at 1000 g/ha for every entry below, keeping the order given.
1. COC(=O)c1nc(C2CC2)nc(N[C@H](CO)Cc2ccccc2)c1Cl [4-273 (S)]
2. COC(=O)c1nc(C2CC2)nc(NCC(F)c2cccc(Br)c2)c1Cl (stereo not drawn) [Compound 4-235]

50
0

Recorded result, COC(=O)c1nc(C2CC2)nc(NCC(=O)OCc2ccccc2)c1Cl [Compound 4-265] , pest or weed control at 1000 g/ha: 20
